# Tested on: Trypanosoma cruzi
# experimental.protocol: Trypanosoma cruzi phosphomannomutase and mannose-1-phosphate guanylyltransferase assay
# Assay type: functional
# Parameters: scale not given: direction of the effect not stated beside the values
# condition: 10 µM
observed.property: Percent Effect (%)
Express it in %; write the number only.

• CCc1nc2n(n1)CC(NCc1nc(C)ccc1O)CC2 (stereo unspecified) = 5.16
• COc1cccc2c1ccn2CCC(=O)N1CCCC(C(=O)O)C1 (stereo unspecified) = -9.64
• CCCc1noc(CN(C)C(=O)C2COc3ccccc3C2)n1 (stereo unspecified) = -3.25
• O=C(C1SCCc2sccc21)N1CCN(CCO)CC1 (stereo unspecified) = 2.34
• Cc1nc(-c2ccccc2)n(CC(=O)NCC(C)C)n1 = -7.08

// next item, Percent Effect requested
Consider the compound CC(=O)N(Cc1noc(C)n1)C1CCN(Cc2ccon2)C1 (stereo unspecified) . State its measured Percent Effect.
1.13

###

# Species on record: Homo sapiens
# experimental.protocol: To identify inhibition of the IFN signalling (Jak-Stat) pathway via expression of an eGFP reporter gene under the control of an IFN-stimulated response element (ISRE) containing MxA promoter.
# Format: functional
# Parameters: scale not given: direction of the effect not stated beside the values
# condition: 30 µM
observed.property: Percent Effect (%)
Field format: number, assumed %, no unit text.

Supply recorded Percent Effect for O=C(NCc1nnc2n1CCCCC2)N1CCc2sccc2C1 here.
16.8

Annotate the compound CC(C(=O)Nc1ccc(N2CCCC2)nc1)n1ccnc1 (configuration not stated) with its measured Percent Effect.
28.6

Give the value of Percent Effect reported for the following: COc1nn(C)c2c1CCCN(C(=O)c1cc[nH]n1)C2
-1.16

Provide measured Percent Effect value, entry: Cc1ccccc1C(=O)NCc1ccc(N2CCNC(=O)C2)c(F)c1
-16.3

Identify measured Percent Effect associated with O=C1NCCN1C1CCN(Cc2ccccn2)CC1
0.116

Specify Percent Effect for Cc1ccoc1C(=O)N1C[C@H]2CCC[C@@]2(COCc2ccncc2)C1 and stop.
1.6

Provide measured Percent Effect value, entry: Cn1cnc2c1CCN(Cc1nc(Cc3ccccc3)no1)C2
1.02

Consider the compound OC(CN1CCN(Cc2ccc(F)c(F)c2)CC1)C1CC1 (configuration not stated) . State its measured Percent Effect.
13.1

Tell me measured Percent Effect for CCCS(=O)(=O)N1C[C@H]2OC(=O)N(CCc3cccc(Cl)c3)[C@H]2C1 please.
16.4

Quick one: give measured Percent Effect for Cc1cccc(CCC(=O)N2CCCC(c3cc(C(N)=O)[nH]n3)C2)c1 (configuration not stated)
9.14

Provide Percent Effect value for the following compound: COCc1noc(C2(c3ccc(OC)cc3)CCOCC2)n1
9.88

Tell me measured Percent Effect for Cc1noc(C)c1CCC(=O)N1CCN(CCn2cccn2)CC1 please.
3.96

###

# assayed.system: Protein translocase subunit SecA (Escherichia coli (strain K12))
# experimental.protocol: Assay to Identify E. coli SecA ATPase Inhibitors
# Assay type: functional
# Design: scale not given: direction of the effect not stated beside the values
# condition: 30 µM
Entries with a potency or affinity are not part of this list.
observed.property: Percent Effect (%)
Kindly provide the numeric value in % only, without the unit symbol.

• Cc1noc(C(C)C)c1C(=O)NCc1cc(F)cc(F)c1 = -3.99
• O=C(c1ccco1)N1C[C@@H]2OCCN(CCN3CCCC3)[C@@H]2C1 = -2.67
• OC1CCN(Cc2c(C3CCCNC3)[nH]c3ncccc23)CC1 (centres undefined) = -5.49
• O=C(c1cscn1)N1CC[C@]2(C[C@@H](OCCN3CCCC3)CO2)C1 = -1.81
• CCCN(CC(=O)NC)C(=O)c1ccc(-c2ccsc2)nc1C = -1.19

Fill in: Percent Effect on Protein translocase subunit SecA (Escherichia coli (strain K12)), entry Cn1cnnc1S(=O)(=O)C1CCN(S(=O)(=O)c2c(Cl)cccc2Cl)CC1
-1.95

Provide Percent Effect, tested on Protein translocase subunit SecA (Escherichia coli (strain K12)), for OCc1ccc(Cl)c(NCc2cccnc2)c1 .
-4.1

Report Percent Effect under test system Protein translocase subunit SecA (Escherichia coli (strain K12)) for CN1C(=O)C(C)(C)COc2cc(NS(=O)(=O)c3ccccc3)ccc21 .
-2.86

Enter Percent Effect (test system Protein translocase subunit SecA (Escherichia coli (strain K12))) for O=C(NCc1ccc(-c2ccn[nH]2)cc1)N1CCC(N2CCCC2)C1 (centres undefined)
-6.43
